Assay: AUC in rat at 3 mg/kg, iv or 10 mg/kg, po
Format: ADME, organism-based
Conditions: plasma
readout-type: AUC (ng·h/mL)
Write down the numeric answer in ng·h/mL and omit the unit.

Per the record, CNCCN1CCCc2cc(NC(=N)c3cccs3)ccc21 has AUC of 1160

---

Biological target: UniProt P35228
Sequence (P35228 whole entry): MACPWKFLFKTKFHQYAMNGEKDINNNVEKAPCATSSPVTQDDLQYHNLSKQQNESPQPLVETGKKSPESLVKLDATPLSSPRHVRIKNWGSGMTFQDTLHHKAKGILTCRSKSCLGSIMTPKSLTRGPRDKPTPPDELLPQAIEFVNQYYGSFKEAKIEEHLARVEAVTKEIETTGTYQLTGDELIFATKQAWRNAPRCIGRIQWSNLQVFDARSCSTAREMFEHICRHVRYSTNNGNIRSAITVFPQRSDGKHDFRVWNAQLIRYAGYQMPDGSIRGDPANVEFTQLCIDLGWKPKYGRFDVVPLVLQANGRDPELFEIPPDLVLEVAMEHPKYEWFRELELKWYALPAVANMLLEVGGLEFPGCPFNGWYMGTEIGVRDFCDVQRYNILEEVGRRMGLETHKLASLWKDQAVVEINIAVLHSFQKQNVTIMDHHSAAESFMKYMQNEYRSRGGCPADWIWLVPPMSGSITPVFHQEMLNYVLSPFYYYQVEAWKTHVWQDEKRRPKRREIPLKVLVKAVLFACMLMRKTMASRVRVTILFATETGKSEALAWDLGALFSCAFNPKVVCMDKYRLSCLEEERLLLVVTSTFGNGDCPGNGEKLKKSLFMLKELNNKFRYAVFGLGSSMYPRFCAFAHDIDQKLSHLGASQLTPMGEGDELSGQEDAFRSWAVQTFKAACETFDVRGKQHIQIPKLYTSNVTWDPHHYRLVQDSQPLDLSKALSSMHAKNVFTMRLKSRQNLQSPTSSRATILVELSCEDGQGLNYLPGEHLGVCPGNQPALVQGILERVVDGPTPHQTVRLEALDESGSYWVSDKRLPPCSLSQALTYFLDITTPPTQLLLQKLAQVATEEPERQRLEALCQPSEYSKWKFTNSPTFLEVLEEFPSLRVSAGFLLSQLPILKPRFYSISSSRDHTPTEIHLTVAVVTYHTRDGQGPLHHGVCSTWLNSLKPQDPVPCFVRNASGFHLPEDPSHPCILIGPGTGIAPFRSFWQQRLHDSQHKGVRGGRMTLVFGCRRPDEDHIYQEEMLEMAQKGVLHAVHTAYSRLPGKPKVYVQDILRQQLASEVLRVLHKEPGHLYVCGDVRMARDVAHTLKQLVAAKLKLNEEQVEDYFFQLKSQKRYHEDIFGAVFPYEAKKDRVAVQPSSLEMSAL
Assay: Inhibition of human recombinant iNOS expressed in Sf9 cells assessed as reduction in conversion of [3H]L-arginine to [3H]L-citrulline preincubated for 15 mins by radiometric method
IC50 for assorted compounds

[[record]]
chem_smiles = "N=C(Nc1ccc2c(c1)CCCN2CCNCCO)c1cccs1"
assay_result = "73 µM"


Per the record, CCN(C)CCN1CCCc2cc(NC(=N)c3cccs3)ccc21 has IC50 of > 100 µM

Per the record, CN(CCO)CCN1CCCc2cc(NC(=N)c3cccs3)ccc21 has IC50 of > 100 µM

Per the record, CCNCCN1CCCc2cc(NC(=N)c3cccs3)ccc21 has IC50 of > 100 µM

---

Experiment: Cmax in rat at 3 mg/kg, iv or 10 mg/kg, po
Assay type: ADME, organism-based
Settings: in vivo
readout-type: Cmax (nM)
Write down the numeric answer in nM and omit the unit.

Per the record, CNCCN1CCCc2cc(NC(=N)c3cccs3)ccc21 has Cmax of 880

---

Target: Nitric oxide synthase 1 (Homo sapiens, UniProt P29475)
Sequence (P29475 whole entry): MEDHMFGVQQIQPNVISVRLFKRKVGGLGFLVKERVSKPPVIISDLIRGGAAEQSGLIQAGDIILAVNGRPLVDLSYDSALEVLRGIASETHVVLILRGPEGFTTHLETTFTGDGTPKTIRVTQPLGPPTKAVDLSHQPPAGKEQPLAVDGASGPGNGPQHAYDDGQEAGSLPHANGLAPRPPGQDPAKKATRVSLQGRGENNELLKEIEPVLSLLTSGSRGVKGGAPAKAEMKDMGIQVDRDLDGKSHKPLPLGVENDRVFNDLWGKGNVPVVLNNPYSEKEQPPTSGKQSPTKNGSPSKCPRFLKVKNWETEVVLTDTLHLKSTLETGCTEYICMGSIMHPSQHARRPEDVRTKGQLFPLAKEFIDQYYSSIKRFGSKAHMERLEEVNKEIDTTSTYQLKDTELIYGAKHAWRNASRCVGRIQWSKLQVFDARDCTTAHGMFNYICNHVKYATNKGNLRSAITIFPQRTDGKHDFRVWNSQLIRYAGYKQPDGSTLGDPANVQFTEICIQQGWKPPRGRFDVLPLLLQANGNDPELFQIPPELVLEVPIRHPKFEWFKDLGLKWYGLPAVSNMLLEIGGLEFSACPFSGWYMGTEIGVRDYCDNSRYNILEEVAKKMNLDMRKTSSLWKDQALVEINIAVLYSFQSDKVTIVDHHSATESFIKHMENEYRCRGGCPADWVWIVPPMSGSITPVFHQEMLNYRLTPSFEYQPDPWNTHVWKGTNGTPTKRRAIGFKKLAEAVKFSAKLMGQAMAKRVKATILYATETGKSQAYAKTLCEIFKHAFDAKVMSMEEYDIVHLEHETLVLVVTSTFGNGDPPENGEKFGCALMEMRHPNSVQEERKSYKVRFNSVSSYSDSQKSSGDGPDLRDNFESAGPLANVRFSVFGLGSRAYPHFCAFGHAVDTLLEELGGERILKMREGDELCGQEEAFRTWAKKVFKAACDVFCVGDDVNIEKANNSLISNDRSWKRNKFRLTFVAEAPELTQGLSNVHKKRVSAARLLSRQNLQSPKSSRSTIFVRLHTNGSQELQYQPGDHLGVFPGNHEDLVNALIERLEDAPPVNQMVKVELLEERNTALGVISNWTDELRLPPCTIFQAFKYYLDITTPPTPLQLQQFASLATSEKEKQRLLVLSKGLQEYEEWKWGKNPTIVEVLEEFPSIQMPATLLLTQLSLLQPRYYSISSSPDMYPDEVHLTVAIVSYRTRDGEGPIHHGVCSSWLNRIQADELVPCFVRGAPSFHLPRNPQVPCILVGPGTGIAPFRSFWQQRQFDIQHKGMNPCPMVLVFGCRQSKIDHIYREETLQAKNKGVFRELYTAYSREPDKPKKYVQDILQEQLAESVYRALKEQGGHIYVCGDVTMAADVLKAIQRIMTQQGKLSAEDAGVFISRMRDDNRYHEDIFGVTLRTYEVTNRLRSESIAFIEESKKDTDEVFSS
IC50 for assorted molecules
Write down the numeric answer in nM and omit the unit.

Worked cases, answers included:
[[record]]
chem_smiles = "CCN(C)CCN1CCCc2cc(NC(=N)c3cccs3)ccc21"
assay_result = 97

[[record]]
chem_smiles = "CCNCCN1CCCc2cc(NC(=N)c3cccs3)ccc21"
assay_result = 139

[[record]]
chem_smiles = "N=C(Nc1ccc2c(c1)CCCN2CCCNCCO)c1cccs1"
assay_result = 169


Kindly consider the entry below.
Here CC(C)NCCN1CCCc2cc(NC(=N)c3cccs3)ccc21 was tested on Nitric oxide synthase 1 (Homo sapiens, UniProt P29475), and its IC50 came to 267

---

Molecular target: Muscarinic acetylcholine receptor M4 (Homo sapiens, UniProt P08173)
Sequence (P08173 whole entry): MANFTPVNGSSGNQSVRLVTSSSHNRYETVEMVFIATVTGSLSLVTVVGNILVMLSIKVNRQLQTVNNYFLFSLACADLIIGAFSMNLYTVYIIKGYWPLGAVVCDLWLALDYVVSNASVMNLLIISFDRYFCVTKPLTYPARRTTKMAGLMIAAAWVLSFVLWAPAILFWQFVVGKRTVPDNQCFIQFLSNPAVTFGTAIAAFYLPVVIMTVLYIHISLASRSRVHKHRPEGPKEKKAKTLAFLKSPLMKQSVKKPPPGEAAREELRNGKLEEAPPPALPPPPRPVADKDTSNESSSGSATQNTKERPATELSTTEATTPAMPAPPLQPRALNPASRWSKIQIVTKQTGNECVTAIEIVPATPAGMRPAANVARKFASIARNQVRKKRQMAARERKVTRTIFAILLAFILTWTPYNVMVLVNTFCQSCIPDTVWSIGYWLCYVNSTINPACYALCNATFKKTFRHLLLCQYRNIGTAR
Experiment: Inhibition of human muscarinic M4 receptor by cell based functional assay
readout-type: EC50

Per the record, CNCCN1CCCc2cc(NC(=N)c3cccs3)ccc21 has EC50 of > 40 µM
